test system: T1, human Claudin 18.2 expressed on cells (HEK293/human Claudin 18.2; CHO-K1/human Claudin 18.2) (human, UniProt P56856-2 1-261)
T1 construct: whole, on cells
experiment description: flow cytometry on HEK293 cells expressing human Claudin 18.2
measured metric: EC50
Kindly write the number and append the unit.

AHP30826 (antibody, V domains shown) VH: QVQLQQSGGGSVQAGGSLRLSCAASGTILSINAMGWYRQAPGKQRELVATITTGGNANYAHSVKGRFTISRDNAKNTVYLQMNNLKPEDTAVYYCNAEQVVVGFLQAYDVWGQGTTVTVSS VL: DVVMTQSPLSLPVTLGQAASISCRSSQSLVHGDGNTYLNWIQQRPGQSPRRLIYKVSNRDSGVPDRFSGSGSGTDFTLKISRVEAEDVGVYYCMQGTHWPSTFGPGTKVDIK; 3.54 nM
AHP32919 (antibody, V domains shown) VH: QVQLQESGGGVVQPGGSLRLSCAASQSIGLLSTMGWYRQAAGKQRELVATITRGGSTNYGEFVKGRFTISRDNAKNTVYLQMNSLKPEDTAVYYCTADESWLGTQSYWGRGTRVTVSS VL: QAGLTQPPSASGTPGQGVTISCSGSSSNIGSNSVNWYQQLPGTAPKLLMHSNNERSSGVPDRFSGSKSGSSASLAISGLQSEDAADYFCGAWDDSLNGYVFGTGTKLTVL; 6.04 nM
AHP31548 (antibody, V domains shown) VH: QVQLMQSGGGLVQPGGSLRLSCAASRNIGILSTMGWYRQAPGKQRELVATITRGGSTNYGEFVKGRFTISRDNAKNTVYLQMNSLKPEDTAVYYCNVDESWLGTQSYWGRGTTVTVSS VL: QSALTQPPSASGSPGQSVTISCTGTSSDIGTYNFVSWYQQHPGKAPKLIIYEVSKRPSGVPDRFSGSKSGNTASLTVSGLQAEDEADYYCKSYPRVFGTGTKLTAL; 3.08 nM
AHP29153 (antibody, V domains shown) VH: QLQQVESGGGLVQPGGSLRLSCAASRNIGILSTMGWYRQAPGKQRELVATITRGGSTNYGEFVKGRFTISRDNAKNTVYLQMNSLKPEDTAVYYCNVDESWLGTQSYWGRGTTVTVSS VL: QSVLTQPASVSGSPGQSITISCTGTSSDVGGYKYVSWYQQPPGKAPKLIIYEVTKRPSGVPDRFSGSKSGNTASLTVSGLQAEDEADYYCLSYAGSNNVFGTGTKLTVL; 8.15 nM
AHP32913 (antibody, V domains shown) VH: QVQLMQSGGGLVQPGGSLRLSCAASRNIGILSTMGWYRQAPGKQRELVATITRGGSTNYGEFVKGRFTISRDNAKNTVYLQMNSLKPEDTAVYYCNVDESWLGTQSYWGRGTQVTVSS VL: QAVVTQEPSLTVSPGGTVTLTCGSSTGPVTSGHYPHWYQQKPGQAPKTLIFDTSHKHPWTPAQFSGSLLGGKAALTLSGAHPEDEAEYYCLLSYSGVRVFGGGTQLIIL; 4.16 nM

# context switch: different binder, same EC50
In: If you can, please state the reported EC50 value of AHP32982 (antibody, V domains shown) VH: QVQLVQSGGGLVQPGGSLRLSCAASRNIGILSTMGWYRQAPGKQRELVATITRGGSTNYGEFVKGRFTISRDNAKNTVYLQMNSLKPEDTAVYYCNVDESWLGTQSYWGRGPLVTVSS VL: DIVMTQSPSSVSASVGDRVTITCRASQGISSWLAWYQQKPGKAPKLLIYAASSLQSGVPSRFSGSGSGTDFTLTISSLQPEDFATYYCQQANSFPLTFGGGTKVEIK .
Out: 5.91 nM
